- system name: T1, human DLL3 antigen (human, UniProt Q9NYJ7 27-492, limits assumed)
- T1 construct: also called immobilized human DLL3; recombinant human DLL3
- T1 sequence (looked up): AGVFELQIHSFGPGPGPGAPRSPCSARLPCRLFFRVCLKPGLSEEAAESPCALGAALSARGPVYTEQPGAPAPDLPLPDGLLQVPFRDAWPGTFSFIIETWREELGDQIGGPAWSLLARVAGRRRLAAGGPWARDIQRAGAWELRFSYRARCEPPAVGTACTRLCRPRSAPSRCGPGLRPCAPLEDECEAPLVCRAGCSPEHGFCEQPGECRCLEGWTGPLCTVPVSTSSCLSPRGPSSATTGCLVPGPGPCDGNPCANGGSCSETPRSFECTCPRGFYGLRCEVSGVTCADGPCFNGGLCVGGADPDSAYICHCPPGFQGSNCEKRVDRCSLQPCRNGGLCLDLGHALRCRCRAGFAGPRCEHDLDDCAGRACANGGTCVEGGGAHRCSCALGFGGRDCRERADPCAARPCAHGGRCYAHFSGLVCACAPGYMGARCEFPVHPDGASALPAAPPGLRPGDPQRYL
- test name: ELISA or flow cytometry screen

{"binder": "SC16.104 (antibody, V domains shown, murine mAb) VH: QVQLKESGPDLVQPSQTLSLTCTVSGFSLTFYGVHWVRQPPGKGLEWVGTMGWDDKKYYNSALKSRLSISRDTSKNQVFLKLSSLQTEDTAMYYCTRGGTGFDYWGQGTTLTVSS VL: QIVLSQSPAILSASPGEKVTMTCRASSSVSYIHWYRQKPGSSPKPWIYATSNLASGVPARFSGSGSGTSYSLTISRVEAEDAATYYCQQWSSNPPTFGAGTKLELK", "binding result": "binds"}
{"binder": "SC16.41 (antibody, V domains shown, murine mAb) VH: EVKLEESGGGLVQFGGSMKLSCAASGFTFSDAWMDWVRQSPEKGLEWVAEIRNKANNHATYYPESVKGRFTISRDDSKSRVYLQMNNLRAEDTGIYYCTGYSSFAYWGQGTLVTVSA VL: DIQMTQTTSSLSASLGDRVTISCRASQDVINYLNWYQQKPDGTVKLLIYYTSRLHSGVPSRFSGSGSRTDYSLTISNLEPEDIATYYCQQYSERPYTFGGGTKLEIKR", "binding result": "binds"}
{"binder": "SC16.133 (antibody, V domains shown, murine mAb) VH: QVQLKESGPGLVAPSQSLSITCTVSGFSLTNYAVHWVRQSPGKGLEWLGVIWSDGSTDYNAAFISRLSISKDNSKSQVFFKMNSLQADDTAMYYCARKKGGWFPWFAYWGQGTLVTVSA VL: SIVMTQTPKFLLVSAGDRVTITCKASQSVSNDVAWYQQKPGQSPKLLIYCASNRYTGVPDRFTGSGYGTDFTFTISTVQAEDLAVYFCQQDYSSPLTFGAGTKLELK", "binding result": "binds"}

// provenance: patent US20140370037A1
